TARGET_OF_ASSAY: KRAS G12D binding to BRAF (Homo sapiens (Human), UniProt P01116+P62937, G12D)
Sequence (P01116-2 other isoform, or with tags, fused parts or gaps G12D): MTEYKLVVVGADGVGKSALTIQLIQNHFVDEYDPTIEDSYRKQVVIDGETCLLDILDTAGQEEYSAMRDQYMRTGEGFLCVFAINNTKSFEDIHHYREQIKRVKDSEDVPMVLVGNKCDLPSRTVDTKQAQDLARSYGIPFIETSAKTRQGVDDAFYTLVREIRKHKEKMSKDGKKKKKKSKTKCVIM
Sequence (P62937 whole entry): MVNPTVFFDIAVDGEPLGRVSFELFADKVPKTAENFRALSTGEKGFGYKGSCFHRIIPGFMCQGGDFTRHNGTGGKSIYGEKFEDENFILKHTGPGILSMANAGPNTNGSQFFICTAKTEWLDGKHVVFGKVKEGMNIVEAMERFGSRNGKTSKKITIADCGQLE
METHOD_NOTES: KRAS-BRAF with CYPA (50 nM) interaction assay (TR-FRET), G12D
RUN_PARAMETERS: GMPPNP loaded 6His-KRAS, GST-BRAF RBD
Text: In this example, TR-FRET was also used to measure the compound or compound-CYPA dependent disruption of the KRAS G12C-BRAF complex. This protocol was also used to measure disruption of KRAS G12D or KRAS G12V binding to BRAF by a compound of the invention, respectively. […] TR-FRET signal was read on a […] microplate reader (Ex320 nm, Em 665/615 nm). […]
Each entry below carries its reported pIC50.
Would you please state pIC50, meaning minus log10 of the concentration in mol/L, as a bare number?

COMPOUND	pIC50
CCn1c(-c2cccnc2[C@H](C)OC)c2c3cc(ccc31)-c1cc(O)cc(c1)C[C@H](NC(=O)[C@H](C(C)C)N(C)C(=O)[C@H]1CCN(C(=O)C(F)Cl)C1)C(=O)N1CCC[C@H](N1)C(=O)OCC(C)(C)C2 (stereo partly shown) [Example 2]	6.53
CCn1c(-c2cccnc2[C@H](C)OC)c2c3cc(ccc31)-c1cc(O)cc(c1)C[C@H](NC(=O)[C@H](C(C)C)N(C)C(=O)[C@H]1CCN(C(=O)/C=C/n3cncn3)C1)C(=O)N1CCC[C@H](N1)C(=O)OCC(C)(C)C2 (atropisomer, axis not shown; (M)) [Example 9]	5.71

Shift focus to the following entry.
Look at this compound and give its reported pIC50. CO[C@@H](C)c1ncc(N2CCN(C)CC2)cc1-c1c2c3cc(ccc3n1CC(F)(F)F)-c1csc(n1)C[C@H](NC(=O)[C@H](C(C)C)N(C)C(=O)C1(F)CCN(C(=O)[C@H](F)Cl)CC1)C(=O)N1CCC[C@H](N1)C(=O)OCC(C)(C)C2 (atropisomer, axis not shown; (M)) [Example 20]
6.38
